# Method description: AR reductase activity, NAD(P)H oxidation at 340 nm
# Type: biochemical
# Assay setup: 10 mM; ND = no activity was detected
Assay readout: Activity [U/mg protein] Butyraldehyde (U/mg protein)
# output: bare number, implied unit U/mg protein

Exam item: I have this molecule here, SCO0229: aldehyde reductase (AR) from Streptomyces coelicolor (protein) MQRQNWLITGVSTGLGRAFAQAALSAGHTVVGTVRSENDVRAFEELGPGHAHGRILDVTDGGAVNGVVAEVERSVGPLDVVVANAGYGLEGTFEETPLAEVRRQFDVNVFGAMATLQAALPHMRARRRGHLMAVTSMGGLMAVPGMSAYCGSKFALEGILEALGKEVAQFGIHVTAIEPGSFRTDWAGRSMTRAARTVADYDDLFAPIREARQKASGNQLGNPAKAGEAVVHITSVDQPPAHLVLGSDALRLVTAARTAVDEDIRAWEALSRTTDFPQGAQL , and I need its recorded Activity [U/mg protein] Butyraldehyde.
Marked response: 0.892

Exam item: Same question for SFyv_1886: aldehyde reductase (AR) from Shigella flexneri (protein) MHYQPKQDLLNDRIILVTGASDGIGREAAMTYARYGATVILLGRNEEKLRQVASHINEETGRQPQWFILDLLTCTSENCQQLAQRIVVNYPRLDGVLHNAGLLGDVCPMSEQNPQVWQDVMQINVNATFMLTQALLPLLLKSDAGSLVFTSSSVGRQGRANWGAYAASKFATEGMMQVLADEYQQRLRVNCINPGGTRTAMRASAFPTEDPQKLKTPADIMPLYLWLMGDDSRRKTGMTFDAQPGRKPGISQ please.
Marked response: 0.124

Exam item: Same for CV_2177: aldehyde reductase (AR) from Chromobacterium violaceum (protein) MRRLEGKQALITGGTSGIGLETAKQFLAEGAKVAITGRSEAGLAQANEVLGGRALLLKSDAGSLDDQRALPAQLRSHGWSRLDAAYLNAGDVTHLPLADWSEADFDRVMAVNLKGPFFLLQALSPLLANPSSVILCGSVGARIGVPSSSAYAASKAGLLSLARTLSAEWLDRGIRVNGLSPGPTHTPAFGKLGMPEDELPALRDRIRKLVPLGRLGRPEELAKAAVFLASDESSYMLGSELLVDGGVGNV
Marked response: 0.151

Exam item: // repeat for BH2491: aldehyde reductase (AR) from Bacillus halodurans (protein) MLQGKTAIVTGASRGIGRATAMELARHGANVVVNYAGNKEKAEKVVAEIKELGVEAIAIQADVADSESVQAMVKETIDTFGAVDILVNNAGITRDNLFMRMKEEDWDAVIDTNLKGVFHCSKAVTRPMMKQRFGRIINVSSVVGAIGNAGQANYVAAKAGVIGLTKTLARELANRNITVNAVAPGFIETDMTGELPEDVKAQMLGQIPLARLGQPEEVAKAVRFLASDDASYLTGQTIHVNGGMVM and report
Marked response: 0.108
